System: Escherichia coli TOP10;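 further: peptides expressed intracellularly from a pBAD plasmid library in pooled LB shake-flask culture, induced with 0.3% L-arabinose, DNA abundance read by NGS, three biological replicates, DESeq2 with apeglm shrinkage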
Assay: shrunken log2 fold change of peptide-encoding DNA abundance (4.5 h post-induction vs induction); higher = less antimicrobial activity (less host growth inhibition)
Conditions: time post-induction: 4.5 h; library: site-saturation at positions 5, 18, 19, 20
Binary classification by shrunken log2 fold change, with 0.02 as an inclusive lower bound for Yes; all other cases are No.

| Residue Codes | Cat |
| --- | --- |
| RRIRYRPPRLPRPRPRPMHVPRP | Yes |
| RRIRVRPPRLPRPRPRPELGPRP | Yes |

(Q) Check this sequence for shrunken log2 fold change at or above 0.02: `RRIRSRPPRLPRPRPRPFQLPRP`
(A) No

(Q) Check this sequence for shrunken log2 fold change at or above 0.02: `RRIRCRPPRLPRPRPRPDMCPRP`
(A) No
